- assay.notes: Cytotoxicity against MDCK cells after 48 hrs by CellTiter96 assay
- Format: cell-based, Canis lupus familiaris
- measurement.setup: dog
Quick reference: CC50 at 48 h of the listed items.

chemical.structure: CCC(CC)O[C@@H]1C=C(C(=O)NOC)C[C@H](NC(=N)N)[C@H]1NC(C)=O
CC50 at 48 h: > 100 µM
--
chemical.structure: CCC(CC)O[C@@H]1C=C(C(=O)NOCCCc2cc3ccccc3[nH]2)C[C@H](NC(=N)N)[C@H]1NC(C)=O
CC50 at 48 h: > 100 µM
--
chemical.structure: CCC(CC)O[C@@H]1C=C(C(=O)NS(C)(=O)=O)C[C@H](NC(=N)N)[C@H]1NC(C)=O
CC50 at 48 h: > 100 µM

Source: ChEMBL document CHEMBL3352719
